# Tested on: Escherichia coli Nissle 1917
# assay method text: DuctApe activity index of respiration/growth curve (0 no growth to 9 maximum) (index 0-9); higher = more growth / nutrient utilisation, active = 3 or more; extreme values may be limits of the assay
# assay setup: nutrient role: sole phosphorus source (pyruvate carbon); incubation: 48 h, 37 °C
measured endpoint: DuctApe activity index
Format: numeric value only, no unit, no commentary.

Please review the following examples before continuing.
compound	DuctApe activity index
O=C(O)C(O)COP(=O)(O)O (configuration not stated)	8.67
O=P(O)(O)O[C@H]1O[C@H](CO)[C@@H](O)[C@H](O)[C@@H]1O [D-Mannose-1-Phosphate]	9

Attention now turns to another entry.
Answer with DuctApe activity index of O=P(O)(O)OP(=O)(O)O [Pyrophosphate] measured for Escherichia coli Nissle 1917.
9

---

# Tested on: Escherichia coli Nissle 1917
# assay method text: DuctApe activity index of respiration/growth curve (0 no growth to 9 maximum) (index 0-9); higher = more growth / nutrient utilisation, active = 3 or more; extreme values may be limits of the assay
# assay setup: nutrient role: C-Source, carbohydrate; incubation: 48 h, 37 °C
measured endpoint: DuctApe activity index
Format: numeric value only, no unit, no commentary.

Please review the following examples before continuing.
compound	study target	numeric result
Nc1ncnc2c1ncn2[C@@H]1O[C@H](CO)[C@@H](O)[C@H]1O [Adenosine]	Escherichia coli Nissle 1917	8.67
CO[C@H]1O[C@H](CO)[C@@H](O)[C@H](O)[C@H]1O [a-Methyl-D-Glucoside]	Escherichia coli Nissle 1917	0
OC[C@H]1O[C@H](OC[C@H]2O[C@H](O[C@]3(CO)O[C@H](CO)[C@@H](O)[C@@H]3O)[C@H](O)[C@@H](O)[C@@H]2O)[C@H](O)[C@@H](O)[C@H]1O [D-Raffinose]	Escherichia coli Nissle 1917	7
CC(=O)N[C@@H]1[C@@H](O)[C@H](O)[C@@H](CO)O[C@@H]1O [N-Acetyl-D-Glucosamine]	Escherichia coli Nissle 1917	8
O=C[C@H](O)[C@@H](O)[C@H](O)[C@H](O)COP(=O)(O)O [D-Glucose-6-Phosphate]	Escherichia coli Nissle 1917	9

Let me know recorded DuctApe activity index for O=c1[nH]cnc2c1ncn2[C@@H]1O[C@H](CO)[C@@H](O)[C@H]1O [Inosine] , thanks.
9

Let me know recorded DuctApe activity index for CO[C@H]1O[C@H](CO)[C@H](O)[C@H](O)[C@H]1O [a-Methyl-D-Galactoside] , thanks.
8

Let me know recorded DuctApe activity index for C[C@@H]1OC(O)[C@H](O)[C@H](O)[C@H]1O (stereo partly drawn) [L-Rhamnose] , thanks.
7.33

---

# Test system: Escherichia coli Nissle 1917
# assay method text: area under OmniLog respiration curve over 48 h (OmniLog units x h); higher = more growth / nutrient utilisation; extreme values may be limits of the assay
# assay setup: nutrient role: sole phosphorus source (pyruvate carbon); incubation: 48 h, 37 °C
measured endpoint: area under OmniLog respiration curve
Format: numeric value only, no unit, no commentary.

molecule	study target	numeric result
C[N+](C)(C)CCOP(=O)(O)O	Escherichia coli Nissle 1917	8840
O=P(O)(O)OP(=O)(O)O [Pyrophosphate]	Escherichia coli Nissle 1917	9320
N[C@@H](COP(=O)(O)O)C(=O)O	Escherichia coli Nissle 1917	8970
Nc1nc2c(ncn2[C@@H]2O[C@H](CO)[C@@H](O)[C@H]2OP(=O)(O)O)c(=O)[nH]1 [Guanosine 2`-Monophosphate]	Escherichia coli Nissle 1917	9820
O=C(O)C(O)COP(=O)(O)O (stereo not drawn)	Escherichia coli Nissle 1917	9300

Answer with area under OmniLog respiration curve of O=c1ccn(C2OC(COP(=O)(O)O)C(O)C2O)c(=O)[nH]1 (stereo not drawn) [Uridine 5`-Monophosphate] measured for Escherichia coli Nissle 1917.
8960

Answer with area under OmniLog respiration curve of O=P(O)(O)CP(=O)(O)O measured for Escherichia coli Nissle 1917.
618

Answer with area under OmniLog respiration curve of O=P(O)(O)O [Phosphate] measured for Escherichia coli Nissle 1917.
9750

Answer with area under OmniLog respiration curve of Nc1ncnc2c1ncn2[C@@H]1O[C@H](COP(=O)(O)O)[C@@H](O)[C@H]1O [Adenosine 5`-Monophosphate] measured for Escherichia coli Nissle 1917.
9380

Answer with area under OmniLog respiration curve of O=P(O)(O)OC[C@H](O)CO (racemic) [DL-a-Glycerol Phosphate] measured for Escherichia coli Nissle 1917.
9010

Answer with area under OmniLog respiration curve of Nc1ccn([C@@H]2O[C@H](CO)[C@@H](O)[C@H]2OP(=O)(O)O)c(=O)n1 [Cytidine 2`-Monophosphate] measured for Escherichia coli Nissle 1917.
9170

Answer with area under OmniLog respiration curve of O=C[C@H](O)[C@@H](O)[C@H](O)[C@H](O)COP(=O)(O)O [D-Glucose-6-Phosphate] measured for Escherichia coli Nissle 1917.
8680

Answer with area under OmniLog respiration curve of N[C@H](COP(=O)(O)O)C(=O)O measured for Escherichia coli Nissle 1917.
9260

Answer with area under OmniLog respiration curve of Nc1ccn([C@@H]2O[C@H](COP(=O)(O)O)[C@@H](O)[C@H]2O)c(=O)n1 [Cytidine 5`-Monophosphate] measured for Escherichia coli Nissle 1917.
8880

Answer with area under OmniLog respiration curve of Nc1nc2c(ncn2[C@@H]2O[C@H](COP(=O)(O)O)[C@@H](O)[C@H]2O)c(=O)[nH]1 [Guanosine 5`-Monophosphate] measured for Escherichia coli Nissle 1917.
9210

Answer with area under OmniLog respiration curve of C[C@@H](OP(=O)(O)O)[C@H](N)C(=O)O measured for Escherichia coli Nissle 1917.
9330

Answer with area under OmniLog respiration curve of Nc1nc2c(ncn2[C@@H]2O[C@H](CO)[C@@H](OP(=O)(O)O)[C@H]2O)c(=O)[nH]1 [Guanosine 3`-Monophosphate] measured for Escherichia coli Nissle 1917.
9730

Answer with area under OmniLog respiration curve of N[C@@H](Cc1ccc(OP(=O)(O)O)cc1)C(=O)O measured for Escherichia coli Nissle 1917.
8920

---

# Tested on: Escherichia coli Nissle 1917
# assay method text: area under OmniLog respiration curve over 48 h (OmniLog units x h); higher = more growth / nutrient utilisation; extreme values may be limits of the assay
# assay setup: nutrient role: C-Source, carbohydrate; incubation: 48 h, 37 °C
Please use Fulfilled whenever area under OmniLog respiration curve is not below 8000, and Not fulfilled whenever it is.

Illustrative cases are given below, each with its answer.
compound	cat
C[C@@H]1OC(O)[C@H](O)[C@H](O)[C@H]1O (some centres not stated)	Not fulfilled
CO[C@@H]1OC[C@@H](O)[C@H](O)[C@H]1O [b-Methyl-D-Xyloside]	Not fulfilled
OC[C@H]1O[C@@](CO)(O[C@H]2O[C@H](CO)[C@@H](O)[C@H](O)[C@H]2O)[C@@H](O)[C@@H]1O	Not fulfilled

Textbook exercise: given the entry CC1OC(O)C(O)C(O)C1O (configuration not stated) , state whether its area under OmniLog respiration curve is greater than or equal to 8000.
Not fulfilled

Textbook exercise: given the entry CC(=O)N[C@@H]1C(O)O[C@H](CO)[C@@H](O)[C@@H]1O (some centres not stated) , state whether its area under OmniLog respiration curve is greater than or equal to 8000.
Not fulfilled

Textbook exercise: given the entry OCc1ccccc1O[C@@H]1O[C@H](CO)[C@@H](O)[C@H](O)[C@H]1O , state whether its area under OmniLog respiration curve is greater than or equal to 8000.
Not fulfilled

Textbook exercise: given the entry OC[C@H]1OC(O)[C@H](O)[C@@H](O)[C@H]1O (some centres not stated) , state whether its area under OmniLog respiration curve is greater than or equal to 8000.
Not fulfilled

Textbook exercise: given the entry OC[C@@H]1OC(O)[C@@H](O)[C@H](O)[C@H]1O (some centres not stated) , state whether its area under OmniLog respiration curve is greater than or equal to 8000.
Not fulfilled

Textbook exercise: given the entry O=C[C@H](O)[C@H](O)[C@@H](O)CO , state whether its area under OmniLog respiration curve is greater than or equal to 8000.
Not fulfilled

Textbook exercise: given the entry OC[C@H]1O[C@H](OC[C@H]2O[C@H](OC[C@H]3O[C@H](O[C@]4(CO)O[C@H](CO)[C@@H](O)[C@@H]4O)[C@H](O)[C@@H](O)[C@@H]3O)[C@H](O)[C@@H](O)[C@H]2O)[C@H](O)[C@@H](O)[C@H]1O , state whether its area under OmniLog respiration curve is greater than or equal to 8000.
Not fulfilled

Textbook exercise: given the entry OC[C@H]1OC(O)[C@@H](O)[C@@H](O)[C@@H]1O (some centres not stated) , state whether its area under OmniLog respiration curve is greater than or equal to 8000.
Fulfilled

Textbook exercise: given the entry O=C[C@H](O)[C@@H](O)[C@H](O)[C@H](O)COP(=O)(O)O [D-Glucose-6-Phosphate] , state whether its area under OmniLog respiration curve is greater than or equal to 8000.
Fulfilled

Textbook exercise: given the entry OC[C@H]1O[C@@H](O[C@H]2[C@H](O)[C@@H](O)[C@@H](O)O[C@@H]2CO)[C@H](O)[C@@H](O)[C@H]1O , state whether its area under OmniLog respiration curve is greater than or equal to 8000.
Not fulfilled

Textbook exercise: given the entry OC[C@H]1O[C@H](O[C@H]2[C@H](O)[C@@H](O)[C@@H](O[C@H]3[C@H](O)[C@@H](O)C(O)O[C@@H]3CO)O[C@@H]2CO)[C@H](O)[C@@H](O)[C@@H]1O (mixture of isomers) , state whether its area under OmniLog respiration curve is greater than or equal to 8000.
Fulfilled

Textbook exercise: given the entry Cc1cn([C@H]2C[C@H](O)[C@@H](CO)O2)c(=O)[nH]c1=O , state whether its area under OmniLog respiration curve is greater than or equal to 8000.
Fulfilled

Textbook exercise: given the entry O=C[C@H](O)[C@@H](O)[C@H](O)[C@H](O)CO[C@@H]1O[C@H](CO)[C@@H](O)[C@H](O)[C@H]1O , state whether its area under OmniLog respiration curve is greater than or equal to 8000.
Not fulfilled

Textbook exercise: given the entry O=C[C@@H](O)[C@H](O[C@@H]1O[C@H](CO)[C@H](O)[C@H](O)[C@H]1O)[C@H](O)CO , state whether its area under OmniLog respiration curve is greater than or equal to 8000.
Fulfilled

Textbook exercise: given the entry O=P(O)(O)O[C@H]1O[C@H](CO)[C@@H](O)[C@H](O)[C@H]1O [D-Glucose-1-Phosphate] , state whether its area under OmniLog respiration curve is greater than or equal to 8000.
Fulfilled

Textbook exercise: given the entry OC[C@@H](O)[C@@H](O[C@@H]1O[C@H](CO)[C@H](O)[C@H](O)[C@H]1O)[C@H](O)[C@@H](O)CO , state whether its area under OmniLog respiration curve is greater than or equal to 8000.
Not fulfilled

Textbook exercise: given the entry OC[C@@]12OC[C@@H](O1)[C@@H](O)[C@@H](O)[C@@H]2O , state whether its area under OmniLog respiration curve is greater than or equal to 8000.
Not fulfilled

Textbook exercise: given the entry OC1OC[C@@H](O)[C@@H](O)[C@@H]1O (some centres not stated) , state whether its area under OmniLog respiration curve is greater than or equal to 8000.
Not fulfilled

Textbook exercise: given the entry OC[C@H]1O[C@H](O[C@H]2O[C@H](CO)[C@@H](O)[C@H](O)[C@H]2O)[C@H](O)[C@@H](O)[C@@H]1O , state whether its area under OmniLog respiration curve is greater than or equal to 8000.
Fulfilled

Textbook exercise: given the entry OCC1OC(O)(CO)C(O)C1O (configuration not stated) , state whether its area under OmniLog respiration curve is greater than or equal to 8000.
Fulfilled

Textbook exercise: given the entry OC1OC[C@@H](O)[C@H](O)[C@H]1O (some centres not stated) , state whether its area under OmniLog respiration curve is greater than or equal to 8000.
Fulfilled
